# inhibition at 100 µM annotations
tested on: 8E51 Cells permanently infected with LAV (Lymphotropic Adenopathy Virus) and MOLT3 cells; experiment: Antiviral activity: syncytia formation inhibition (8E51 cells infected with LAV co-incubated with MOLT3 cells); assay type: cell-based; details: Homo sapiens, MOLT-3; 100 μM

COMPOUND	inhibition at 100 µM, %
CCCCN1CCC(COC(=O)OCC2CCN(CCCC)CC2)CC1 [1, E]]	79
CC(C)N(CCCCOC(=O)OCCCCN(C(C)C)C(C)C)C(C)C [18, D]]	63
CCCCN(CCCC)CCC(C)OC(=O)OC(C)CCN(CCCC)CCCC (centres unmarked) [8, D]]	27
CCCCN(CCCC)[C@@H]1CCCC[C@H]1OC(=O)OCC1CCCN(C)C1 (some centres unmarked) [5, C]]	23
CN(CCCOC(=O)OCCCN(C)Cc1ccccc1)Cc1ccccc1 [16, D]]	27
O=C(OCCCN(Cc1ccccc1)Cc1ccccc1)OCCCN(Cc1ccccc1)Cc1ccccc1 [17, D]]	19
CCCCN(CCCC)[C@@H]1CCCC[C@H]1OC(=O)OCc1cccnc1 (relative stereo) [4, C]]	28
CCN(CC)CCCCCCOC(=O)OCCCCCCN(CC)CC [13, E]]	43.5
